From: paper PMC7436059

target: BSA (Bos taurus); construct: purchased Asbio; test: BSA fluorescence quenching titration (Stern-Volmer, Scatchard); format: binding, bovine; conditions: 1.6 μM BSA, Tris-HCl buffer; Scatchard equation
Sequence (P02769 25-607): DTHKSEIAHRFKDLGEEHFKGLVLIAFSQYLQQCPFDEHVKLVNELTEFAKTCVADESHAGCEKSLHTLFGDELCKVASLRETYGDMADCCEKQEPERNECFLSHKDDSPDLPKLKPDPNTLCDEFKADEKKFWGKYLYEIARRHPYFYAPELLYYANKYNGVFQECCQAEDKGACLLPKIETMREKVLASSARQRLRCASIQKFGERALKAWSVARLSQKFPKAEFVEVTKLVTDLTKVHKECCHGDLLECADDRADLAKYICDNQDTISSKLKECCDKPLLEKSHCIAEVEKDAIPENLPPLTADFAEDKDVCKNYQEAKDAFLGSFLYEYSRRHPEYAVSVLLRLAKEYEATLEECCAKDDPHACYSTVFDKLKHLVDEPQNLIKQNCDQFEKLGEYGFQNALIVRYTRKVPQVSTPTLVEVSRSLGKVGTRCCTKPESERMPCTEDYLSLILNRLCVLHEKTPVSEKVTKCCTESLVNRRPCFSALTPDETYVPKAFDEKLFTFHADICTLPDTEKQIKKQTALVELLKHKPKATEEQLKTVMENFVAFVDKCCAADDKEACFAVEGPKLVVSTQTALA
Label condition met for high-side n (binding site number) (at or above 0.9) and condition not met for low-side n (binding site number) (below it).

[
  {
    "molecule": "COc1ccc(-c2cc(-c3ccccn3)nc(-c3ccccn3)c2)cc1.[I][Zn][I] [Compound 4, [ZnI2L^2]]",
    "target-entity": "BSA (Bos taurus)",
    "discrete-label": "condition met"
  },
  {
    "molecule": "COc1ccc(-c2cc(-c3ccccn3)nc(-c3ccccn3)c2)cc1.[Br][Zn][Br] [Compound 3, [ZnBr2L^2]]",
    "target-entity": "BSA (Bos taurus)",
    "discrete-label": "condition met"
  },
  {
    "molecule": "Cc1ccc(-c2cc(-c3ccccn3)nc(-c3ccccn3)c2)cc1.[Br][Zn][Br] [Compound 5, [ZnBr2L^3]]",
    "target-entity": "BSA (Bos taurus)",
    "discrete-label": "condition not met"
  },
  {
    "molecule": "CS(=O)(=O)c1ccc(-c2cc(-c3ccccn3)nc(-c3ccccn3)c2)cc1.[I][Zn][I] [Compound 2, [ZnI2L^1]]",
    "target-entity": "BSA (Bos taurus)",
    "discrete-label": "condition not met"
  },
  {
    "molecule": "CS(=O)(=O)c1ccc(-c2cc(-c3ccccn3)nc(-c3ccccn3)c2)cc1.[Br][Zn][Br] [Compound 1, [ZnBr2L^1]]",
    "target-entity": "BSA (Bos taurus)",
    "discrete-label": "condition not met"
  }
]

----------
target: BSA (Bos taurus); construct: purchased Asbio; experiment: BSA fluorescence quenching titration (Stern-Volmer, Scatchard); type: binding, bovine; conditions: 1.6 μM BSA, Tris-HCl buffer, excitation 280 nm
measured-property: Ksv (Stern-Volmer quenching constant) (M⁻¹)

[
  {
    "compound": "CS(=O)(=O)c1ccc(-c2cc(-c3ccccn3)nc(-c3ccccn3)c2)cc1.[Br][Zn][Br] [Compound 1, [ZnBr2L^1]]",
    "unit-of-measure": "M⁻¹",
    "test-value": 176000
  },
  {
    "compound": "CS(=O)(=O)c1ccc(-c2cc(-c3ccccn3)nc(-c3ccccn3)c2)cc1.[I][Zn][I] [Compound 2, [ZnI2L^1]]",
    "unit-of-measure": "M⁻¹",
    "test-value": 176000
  },
  {
    "compound": "COc1ccc(-c2cc(-c3ccccn3)nc(-c3ccccn3)c2)cc1.[Br][Zn][Br] [Compound 3, [ZnBr2L^2]]",
    "unit-of-measure": "M⁻¹",
    "test-value": 115000
  },
  {
    "compound": "COc1ccc(-c2cc(-c3ccccn3)nc(-c3ccccn3)c2)cc1.[I][Zn][I] [Compound 4, [ZnI2L^2]]",
    "unit-of-measure": "M⁻¹",
    "test-value": 163000
  },
  {
    "compound": "Cc1ccc(-c2cc(-c3ccccn3)nc(-c3ccccn3)c2)cc1.[Br][Zn][Br] [Compound 5, [ZnBr2L^3]]",
    "unit-of-measure": "M⁻¹",
    "test-value": 46300
  },
  {
    "compound": "Cc1ccc(-c2cc(-c3ccccn3)nc(-c3ccccn3)c2)cc1.[I][Zn][I] [Compound 6, [ZnI2L^3]]",
    "unit-of-measure": "M⁻¹",
    "test-value": 76700
  }
]
